The measured values listed here are drawn from patent US20240409645A1.

- system: T1, mouse common cytokine receptor γ-chain (IL-2Rγ) (mouse, UniProt P34902 23-263, limits assumed)
- T1 construct: Recombinant mouse IL-2Rγ protein; also called mo IL-2R; mouse IL-2R gamma
- T1 sequence (looked up): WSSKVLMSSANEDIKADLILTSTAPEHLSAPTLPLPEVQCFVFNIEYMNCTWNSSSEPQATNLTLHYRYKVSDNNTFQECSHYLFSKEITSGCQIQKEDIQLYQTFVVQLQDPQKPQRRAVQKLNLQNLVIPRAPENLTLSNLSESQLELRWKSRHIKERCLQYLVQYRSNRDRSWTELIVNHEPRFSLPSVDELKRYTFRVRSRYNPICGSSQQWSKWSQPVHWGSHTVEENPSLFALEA
- protocol-summary: P.E. binding ELISA
Listing: PE binding ELISA OD of selected binders
measured-endpoint: PE binding ELISA OD (OD450 nm)

binder	measured-endpoint	unit-of-measure	value-reported
FJ1427_P035MP07A09 (VHH, tested as periplasmic extract; also called Clone nr) VHH: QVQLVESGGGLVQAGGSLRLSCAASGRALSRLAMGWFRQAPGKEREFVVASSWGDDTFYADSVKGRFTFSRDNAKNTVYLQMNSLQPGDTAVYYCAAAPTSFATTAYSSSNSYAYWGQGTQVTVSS	PE binding ELISA OD	OD450 nm	0.055
FJ1427_P035MP07B02 (VHH, tested as periplasmic extract; also called Clone nr) VHH: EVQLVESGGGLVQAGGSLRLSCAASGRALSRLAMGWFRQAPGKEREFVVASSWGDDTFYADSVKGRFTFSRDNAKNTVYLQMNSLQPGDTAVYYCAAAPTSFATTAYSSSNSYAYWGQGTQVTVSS	PE binding ELISA OD	OD450 nm	0.061
FJ1427_P035MP07F04 (VHH, tested as periplasmic extract; also called Clone nr; 606) VHH: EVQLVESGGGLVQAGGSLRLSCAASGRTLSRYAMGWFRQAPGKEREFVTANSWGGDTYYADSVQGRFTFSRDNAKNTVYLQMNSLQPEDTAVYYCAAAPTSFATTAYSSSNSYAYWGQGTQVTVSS	PE binding ELISA OD	OD450 nm	0.047
FJ1427_P035MP07E05 (VHH, tested as periplasmic extract; also called Clone nr) VHH: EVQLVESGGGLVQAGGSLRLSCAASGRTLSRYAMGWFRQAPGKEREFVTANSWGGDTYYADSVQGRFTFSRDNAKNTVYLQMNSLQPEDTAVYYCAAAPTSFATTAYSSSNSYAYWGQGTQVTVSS	PE binding ELISA OD	OD450 nm	0.045
